The measurements presented in this section are drawn from patent US9597314B2.

measuredOn: UniProt:P37288
Sequence (P37288 whole entry): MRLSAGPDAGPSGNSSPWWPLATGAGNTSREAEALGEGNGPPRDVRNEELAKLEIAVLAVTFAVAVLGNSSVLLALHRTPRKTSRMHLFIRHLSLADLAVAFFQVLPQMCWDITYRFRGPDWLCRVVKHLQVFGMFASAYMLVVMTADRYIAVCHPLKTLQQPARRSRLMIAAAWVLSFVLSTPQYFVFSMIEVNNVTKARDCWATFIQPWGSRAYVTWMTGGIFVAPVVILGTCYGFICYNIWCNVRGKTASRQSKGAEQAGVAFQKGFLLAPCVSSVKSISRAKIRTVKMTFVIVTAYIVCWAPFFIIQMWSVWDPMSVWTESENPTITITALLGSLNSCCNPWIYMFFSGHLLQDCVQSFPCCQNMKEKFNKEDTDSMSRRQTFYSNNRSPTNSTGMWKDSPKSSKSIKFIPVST
assayMethodText: Human vasopression V1a receptor binding assay
Parameters: host or cells: CHO cells (hV1a cell line), whole adherent cells
cond: hV1a cell line (CHO), 1 nM 3H-AVP; Table 17; read-out: V1a Binding Affinity (IC50 (nM))
measuredQuantity: IC50 (nM)

a: O=C(N[C@@H]1CCc2ccccc21)[C@H](CCC(=O)N1CCN(C2CCCCC2)CC1)N1C(=O)[C@@H](N2C(=O)OC[C@@H]2c2ccccc2)[C@H]1/C=C/c1ccccc1 [Example 221S]
b: Cc1cccc(CN(C)C(=O)[C@H](CCC(=O)N2CCN(C3CCCCC3)CC2)N2C(=O)[C@@H](N3C(=O)OC[C@@H]3c3ccccc3)[C@H]2/C=C/c2ccccc2)c1 [Example 221A]
c: O=C(NCc1cccc(C(F)(F)F)c1)[C@H](CC(=O)N1CCC(CCN2CCCCC2)CC1)N1C(=O)[C@@H](N2C(=O)OC[C@@H]2c2ccccc2)[C@H]1/C=C/c1ccccc1 [Example 86A]
I would appreciate it if you could sort these 3 compounds by IC50, starting from the smallest number. // format: requested-order list of labels
b, a, c
